Test system: H1 human embryonic stem cells (differentiated)
assay_method_text: Example 3: confirmation screen, total cell number (nuclei) by high content analysis
Format: cell-based
condition_details: 2.5 uM, steps 3 and 4, triplicate; relative to control treatment
property_measured: Total Nuclei Ratio
Give bare numbers.

>>> print(df.to_string())
                                   molecule                              study_system   property_measured  numeric_value
0  C#Cc1cccc(Nc2ncnc3cc(OC)c(OC)cc23)c1 [BML-265]  H1 human embryonic stem cells (differentiated)  Total Nuclei Ratio           0.97
1  O=S(=O)(c1cccc2cnccc12)N1CCCNCC1 [HA-1077]  H1 human embryonic stem cells (differentiated)  Total Nuclei Ratio           1.07
2  COc1cccc(-c2cc(=O)c3ccccc3o2)c1N [PD-98059]  H1 human embryonic stem cells (differentiated)  Total Nuclei Ratio           0.96
3  O=C1Cc2c([nH]c3ccc(Br)cc23)-c2ccccc2N1 [Kenpaullone]  H1 human embryonic stem cells (differentiated)  Total Nuclei Ratio           1.02
4  C[S+]([O-])c1ccc(-c2nc(-c3ccc(F)cc3)c(-c3ccncc3)[nH]2)cc1 (stereo not shown) [SB-203580]  H1 human embryonic stem cells (differentiated)  Total Nuclei Ratio           1.05
5  NC(N)=NCCNS(=O)(=O)c1cccc2cnccc12 [HA-1004]  H1 human embryonic stem cells (differentiated)  Total Nuclei Ratio           1.08
6   CC(C)c1cnc(NC(=O)Cc2ccccc2)s1 [BML-259]  H1 human embryonic stem cells (differentiated)  Total Nuclei Ratio           0.99
7  CC1CNCCN1S(=O)(=O)c1cccc2cnccc12 (stereo not shown) [H-7]  H1 human embryonic stem cells (differentiated)  Total Nuclei Ratio           1.09

I have 2 molecules here; please give me Total Nuclei Ratio for each one.
1. NCCNS(=O)(=O)c1cccc2cnccc12 [H-9]
2. Oc1ccc(-c2nc(-c3ccc(F)cc3)c(-c3ccncc3)[nH]2)cc1 [SB-202190]

1. 1.13
2. 1.08

###

Please go through the items and note down their Total Nuclei Ratio.
System: H1 human embryonic stem cells (differentiated)
assay_method_text: Example 3: confirmation screen, total cell number (nuclei) by high content analysis
Assay type: cell-based
condition_details: 2.5 uM, steps 3 and 4, triplicate; relative to control treatment
Answers are plain numbers.

Study these solved cases before continuing.
>>> print(df.to_string())
                                   compound                              study_system   property_measured  numeric_value
0  CN(C)CCCn1cc(C2=C(c3c[nH]c4ccccc34)C(=O)NC2=O)c2ccccc21 [GF 109203X]  H1 human embryonic stem cells (differentiated)  Total Nuclei Ratio           0.82
1   N#C/C(=C/c1ccc(O)c(O)c1)C(=O)NCc1ccccc1  H1 human embryonic stem cells (differentiated)  Total Nuclei Ratio           0.99
2     O=c1cc(N2CCOCC2)oc2c(-c3ccccc3)cccc12  H1 human embryonic stem cells (differentiated)  Total Nuclei Ratio           1.03
3  O=C1Nc2ccc(I)cc2/C1=C/c1cc(Br)c(O)c(Br)c1  H1 human embryonic stem cells (differentiated)  Total Nuclei Ratio           1.11

Please examine the following record next.
Which Total Nuclei Ratio reading was recorded for the compound Cl.Cl.O=S(=O)(NCCNC/C=C/c1ccc(Br)cc1)c1cccc2cnccc12 ?
1.08

Data provenance is patent US9133439B2.
